# maps each entry to its MIC
System: Pseudomonas aeruginosa ATCC 27853
Test method notes: Antibacterial activity, MIC
Format: cell-based
Condition description: ATCC27853, ATCC 27853, agar two-fold dilution, 37° C., 20 hours, read-out: MIC

Compound | Target system | MIC [µg/mL]
CCO/N=C(\C(=O)NC1C(=O)N2C(C(=O)[O-])=C(CSc3nc(N)cc(N)[n+]3CC)CSC12)c1nsc(N)n1 (centres unmarked) | Pseudomonas aeruginosa ATCC 27853 | 2
CC[n+]1c(SCC2=C(C(=O)[O-])N3C(=O)C(NC(=O)/C(=N\OC(C)(C)C(=O)O)c4csc(N)n4)C3SC2)nc(N)c(C)c1N (centres unmarked) | Pseudomonas aeruginosa ATCC 27853 | 2
C=CCO/N=C(\C(=O)NC1C(=O)N2C(C(=O)[O-])=C(CSc3nc(N)cc(N)[n+]3CC)CSC12)c1csc(N)n1 (centres unmarked) | Pseudomonas aeruginosa ATCC 27853 | 4
C=CC[n+]1c(N)cc(N)nc1SCC1=C(C(=O)[O-])N2C(=O)C(NC(=O)/C(=N\OCC)c3nsc(N)n3)C2SC1 (centres unmarked) | Pseudomonas aeruginosa ATCC 27853 | 8
CCc1c(N)nc(SCC2=C(C(=O)[O-])N3C(=O)C(NC(=O)/C(=N\OC(C)(C)C(=O)O)c4csc(N)n4)C3SC2)[n+](C)c1N (centres unmarked) | Pseudomonas aeruginosa ATCC 27853 | 2
CC[n+]1c(N)cc(N)nc1SCC1=C(C(=O)[O-])N2C(=O)C(NC(=O)/C(=N\OC(C)(C)C(=O)O)c3nsc(N)n3)C2SC1 (centres unmarked) | Pseudomonas aeruginosa ATCC 27853 | 2
CO/N=C(\C(=O)NC1C(=O)N2C(C(=O)[O-])=C(CSc3nc(N)cc(N)[n+]3N)CSC12)c1csc(N)n1 (centres unmarked) | Pseudomonas aeruginosa ATCC 27853 | 1
C#CCO/N=C(\C(=O)NC1C(=O)N2C(C(=O)[O-])=C(CSc3nc(N)cc(N)[n+]3C)CSC12)c1csc(N)n1 (centres unmarked) | Pseudomonas aeruginosa ATCC 27853 | 2
CCO/N=C(\C(=O)NC1C(=O)N2C(C(=O)[O-])=C(CSc3nc(N)cc(N)[n+]3CC)CSC12)c1csc(N)n1 (centres unmarked) | Pseudomonas aeruginosa ATCC 27853 | 2
C[n+]1c(N)cc(N)nc1SCC1=C(C(=O)[O-])N2C(=O)C(NC(=O)/C(=N\OC(C)(C)C(=O)O)c3nsc(N)n3)C2SC1 (centres unmarked) | Pseudomonas aeruginosa ATCC 27853 | 2
CC(C)(O/N=C(\C(=O)NC1C(=O)N2C(C(=O)[O-])=C(CSc3nc(N)cc(N)[n+]3N)CS[C@H]12)c1csc(N)n1)C(=O)O (some centres unmarked) | Pseudomonas aeruginosa ATCC 27853 | 1
CC(C)(O/N=C(\C(=O)NC1C(=O)N2C(C(=O)[O-])=C(CSc3nc(N)cc(N)[n+]3C3CC3)CSC12)c1csc(N)n1)C(=O)O (centres unmarked) | Pseudomonas aeruginosa ATCC 27853 | 2
C#CCO/N=C(\C(=O)NC1C(=O)N2C(C(=O)[O-])=C(CSc3nc(N)cc(N)[n+]3CC)CSC12)c1csc(N)n1 (centres unmarked) | Pseudomonas aeruginosa ATCC 27853 | 2
CCO/N=C(\C(=O)NC1C(=O)N2C(C(=O)[O-])=C(CSc3nc(N)cc(N)[n+]3C)CSC12)c1nsc(N)n1 (centres unmarked) | Pseudomonas aeruginosa ATCC 27853 | 2
